meta.source: the MegaScale stability set (Tsuboyama et al. 2023)

B1: 1ZHC (parent)
chain: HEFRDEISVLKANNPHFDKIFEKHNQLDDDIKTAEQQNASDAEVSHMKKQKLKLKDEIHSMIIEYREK

variants of: B1; assay: folding stability dG (cDNA display proteolysis); higher = more stable; conditions: PBS, room temperature
Classification by folding stability dG | ranges: lower level (below 0.4 kcal/mol), middle level (0.4 kcal/mol to below 1 kcal/mol), upper level (1 kcal/mol or more)

// known answers, use as guide
mutation_descriptor | group_label
S40D | middle level
Q37I | middle level

Record `K48C` — which class? middle level

Record `M61Y` — which class? lower level

Record `A34L` — which class? upper level

Record `D30N` — which class? lower level

Record `D28E` — which class? upper level

Record `N38E` — which class? lower level
